Just for reference, patent US9718802B2 is where these values come from.

Test: Test 1 stability data under 25° C. for 6 months (liquid chromatography)
Type: physicochemical
Details: 25° C., 4 months; in % (unit assumed)
Experimental: Liquid chromatography test conditions are: chromatographic column is Merck Purospher®STAR RP-18 endcapped 250×4.6 mm, 5 μm; mobile phase A: acetonitrile, mobile phase B: 4 ml phosphoric acid added in 1 L water, the pH is adjusted to 3.5 by triethylamine; detecting wavelength: 310 nm; flow rate: 1 ml/min; sample load: 10 μl; column temperature: 30° C., liquid chromatography conditions are shown in table 4: […]
Assay Readout: Major peak
Field format: numeric only.

Task: Tell me measured Major peak for CCCCCCOC(=O)/N=C(/N)c1ccc(NCc2nc3cc(C(=O)N(CCC(=O)OCC)c4ccccn4)ccc3n2C)cc1.CS(=O)(=O)O [Crystal form N] please.
Result: 99.580

Task: Please list Major peak recorded for the compound CCCCCCOC(=O)/N=C(/N)c1ccc(NCc2nc3cc(C(=O)N(CCC(=O)OCC)c4ccccn4)ccc3n2C)cc1.CS(=O)(=O)O [Semihydrate crystal form]
Result: 99.447

Task: Give reported Major peak value for CCCCCCOC(=O)/N=C(/N)c1ccc(NCc2nc3cc(C(=O)N(CCC(=O)OCC)c4ccccn4)ccc3n2C)cc1.CS(=O)(=O)O [Crystal form II]
Result: 99.069

Task: Fill in reported Major peak for this entry: CCCCCCOC(=O)/N=C(/N)c1ccc(NCc2nc3cc(C(=O)N(CCC(=O)OCC)c4ccccn4)ccc3n2C)cc1.CS(=O)(=O)O [Crystal form I]
Result: 99.308

Task: Quickly give me recorded Major peak for CCCCCCOC(=O)/N=C(/N)c1ccc(NCc2nc3cc(C(=O)N(CCC(=O)OCC)c4ccccn4)ccc3n2C)cc1.CS(=O)(=O)O [Crystal form M]
Result: 99.582
